Source listed as patent US20220017572A1.

- tested-system: dengue 2 protease (Dengue virus type 2, UniProt P14340)
- Construct: The active site of the dengue protease is in the N-terminal part of NS3
- Sequence (P14340 1476-1653): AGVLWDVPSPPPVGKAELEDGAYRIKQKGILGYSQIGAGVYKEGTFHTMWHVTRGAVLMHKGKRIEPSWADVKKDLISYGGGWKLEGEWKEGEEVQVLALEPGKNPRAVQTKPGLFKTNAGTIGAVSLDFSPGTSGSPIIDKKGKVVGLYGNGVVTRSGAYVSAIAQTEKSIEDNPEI
- experiment: Dengue 2 protease inhibition in presence of Triton X-100 (detergent test, Nature Protocol)
- Format: biochemical, dengue 2 virus
- test-context: 20 μM of inhibitor, 0.05% Triton X-100; initial activity in UAF/min
Residues, ends and D or L forms follow the SMILES beside them.
observable: Activity with 0.05% Triton
Number only, no unit.

Guide cases for Activity with 0.05% Triton, answers given:
[[record]]
compound = "CCCCCCCCCCCCCCCCNC(=O)[C@H](CCCNC(=N)N)NC(=O)[C@H](C)NC(=O)[C@H](C)NC(=O)[C@H](C)NC(=O)[C@H](C)NC(=O)[C@H](CCCNC(=N)N)NC(=O)CCCCCCCCCCCCCCC [C16RA4RC16] (HELM PEPTIDE1{[CCCCCCCCCCCCCCCC(=O)[*:2]].R.A.A.A.A.R.[CCCCCCCCCCCCCCCCN[*:1]]}$$$$V2.0)"
reported_measurement = 164

[[record]]
compound = "CCCCCCCCCCCCCCCCNC(=O)[C@H](CCCCN)NC(=O)[C@H](C)NC(=O)[C@H](C)NC(=O)[C@H](C)NC(=O)[C@H](C)NC(=O)[C@H](CCCCN)NC(=O)CCCCCCCCCCCCCCC [C16-KAAAAK-C16] (HELM PEPTIDE1{[CCCCCCCCCCCCCCCC(=O)[*:2]].K.A.A.A.A.K.[CCCCCCCCCCCCCCCCN[*:1]]}$$$$V2.0)"
reported_measurement = 133

[[record]]
compound = "CCCCCCCCCCCCCCCCNC(=O)[C@H](CCCNC(=N)N)NC(=O)[C@H](CCCNC(=N)N)NC(=O)CCCCCCCCCCCCCCC [C16RRC16, n-C15H31C(O)-Arg-Arg-(n-C16H33).2TFA]"
reported_measurement = 148


Continue with the next compound.
Please supply the value of reported Activity with 0.05% Triton for the item CCCCCCCCCCCCNC(=O)[C@H](CCCCN)NC(=O)[C@H](C)NC(=O)[C@H](C)NC(=O)[C@H](CCCCN)NC(=O)CCCCCCCCCCC [C12KA2KC12] (HELM PEPTIDE1{[CCCCCCCCCCCC(=O)[*:2]].K.A.A.K.[CCCCCCCCCCCCN[*:1]]}$$$$V2.0)
216
